System: Mus musculus
Assay: Toxicity in mice after 7-8 days at a dose of 100 mg/kg/day; 7/9
Assay type: organism-based
Conditions: in vivo
Quantity: median survival time (days)

[
  {
    "Cpd smiles": "Nc1ccn([C@@H]2O[C@H](CO)[C@@H](O)[C@@H]2O)c(=O)n1",
    "Endpoint result": 7
  }
]

----------
System: Mus musculus
Test: Toxicity in mice after 10 days at a dose of 95 and 190 mg/kg/day; 10/9.5
Assay type: organism-based
Conditions: in vivo, 240 h

[
  {
    "Cpd smiles": "CCCCCCCCCCCCCCCC(=O)OC[C@@H](COP(=O)(O)O)OC(=O)CCCCCCCCCCCCCCC.Nc1ccn([C@@H]2O[C@H](COP(=O)(O)O)[C@@H](O)[C@@H]2O)c(=O)n1",
    "Quantity unit": "days",
    "median survival time": 10
  }
]

----------
System: Mus musculus
Experiment: Toxicity in mice after 12-13 days at a dose of 100 mg/kg/day; 12/8
Assay type: organism-based
Conditions: in vivo
Quantity: median survival time (days)

[
  {
    "Cpd smiles": "Nc1ccn([C@@H]2O[C@H](CO)[C@@H](O)[C@@H]2O)c(=O)n1",
    "Endpoint result": 12
  }
]

----------
Test system: Mus musculus
Assay: Toxicity in mice after 17-29 days at a dose of 80 mg/kg/day; 21/9.5
Type: organism-based
Details: in vivo

[
  {
    "Cpd smiles": "CCCCCCCCCCCCCCCC(=O)OC[C@@H](COP(=O)(O)OP(=O)(O)OC[C@H]1O[C@@H](n2ccc(N)nc2=O)[C@@H](O)[C@@H]1O)OC(=O)CCCCCCCCCCCCCCC",
    "System": "Mus musculus",
    "median survival time (days)": 21
  }
]

----------
Test system: Mus musculus
Test: Toxicity in mice after 29->45 days at a dose of 60 mg/kg/day; 45/9
Type: organism-based
Conditions: in vivo, 1080 h

[
  {
    "Cpd smiles": "CCCCCCCCCCCCCCCC(=O)OC[C@H](COP(=O)(O)OP(=O)(O)OC[C@H]1O[C@@H](n2ccc(N)nc2=O)[C@@H](O)[C@@H]1O)OC(=O)CCCCCCCCCCCCCCC",
    "median survival time": "> 45 days"
  }
]

----------
Tested on: Mus musculus
Experiment: Toxicity in mice after 17-35 days at a dose of 400 mg/kg/day; 19/9
Assay type: organism-based
Details: in vivo
Quantity: median survival time (days)

[
  {
    "Cpd smiles": "CCCCCCCCCCCCCCCC(=O)OC[C@@H](COP(=O)(O)OP(=O)(O)OC[C@H]1O[C@@H](n2ccc(N)nc2=O)[C@@H](O)[C@@H]1O)OC(=O)CCCCCCCCCCCCCCC",
    "Quantity unit": "days",
    "Endpoint result": 19
  }
]

----------
Test system: Mus musculus
Assay: Toxicity in mice after 17-21 days at a dose of 60 mg/kg/day; 21/8.5
Format: organism-based
Details: in vivo

[
  {
    "Cpd smiles": "Nc1ccn([C@@H]2O[C@H](CO)[C@@H](O)[C@@H]2O)c(=O)n1",
    "Quantity unit": "days",
    "median survival time": 21
  }
]

----------
System: Mus musculus
Test: Toxicity in mice after 7-14 days at a dose of 100 mg/kg/day; 11/9.5
Type: organism-based
Settings: in vivo
Quantity: median survival time (days)

[
  {
    "Cpd smiles": "CCCCCCCCCCCCCCCC(=O)OC[C@H](COP(=O)(O)O)OC(=O)CCCCCCCCCCCCCCC.Nc1ccn([C@@H]2O[C@H](COP(=O)(O)O)[C@@H](O)[C@@H]2O)c(=O)n1",
    "System": "Mus musculus",
    "Quantity unit": "days",
    "Endpoint result": 11
  }
]

----------
System: Mus musculus
Assay: Toxicity in mice after 15-45 days at a dose of 60 mg/kg/day; 30/9
Format: organism-based
Settings: in vivo

[
  {
    "Compound": "CCCCCCCCCCCCCCCC(=O)OCC(COP(=O)(O)OP(=O)(O)OC[C@H]1O[C@@H](n2ccc(N)nc2=O)[C@@H](O)[C@@H]1O)OC(=O)CCCCCCCCCCCCCCC (mixture of isomers)",
    "System": "Mus musculus",
    "median survival time": "30 days"
  }
]
